Recorded values, source patent US20230148214A1.

target: LRRK2 WT (Homo sapiens, UniProt Q5S007); construct: purchased Life Technologies PR8604B; experiment: LRRK2 Kinase Activity Assay (LanthaScreen TR-FRET), wild type; type: biochemical; conditions: recombinant wild type LRRK2, 25 μM ATP, 400 nM LRRKtide, 60 min; class symbols
Sequence (Q5S007 whole entry): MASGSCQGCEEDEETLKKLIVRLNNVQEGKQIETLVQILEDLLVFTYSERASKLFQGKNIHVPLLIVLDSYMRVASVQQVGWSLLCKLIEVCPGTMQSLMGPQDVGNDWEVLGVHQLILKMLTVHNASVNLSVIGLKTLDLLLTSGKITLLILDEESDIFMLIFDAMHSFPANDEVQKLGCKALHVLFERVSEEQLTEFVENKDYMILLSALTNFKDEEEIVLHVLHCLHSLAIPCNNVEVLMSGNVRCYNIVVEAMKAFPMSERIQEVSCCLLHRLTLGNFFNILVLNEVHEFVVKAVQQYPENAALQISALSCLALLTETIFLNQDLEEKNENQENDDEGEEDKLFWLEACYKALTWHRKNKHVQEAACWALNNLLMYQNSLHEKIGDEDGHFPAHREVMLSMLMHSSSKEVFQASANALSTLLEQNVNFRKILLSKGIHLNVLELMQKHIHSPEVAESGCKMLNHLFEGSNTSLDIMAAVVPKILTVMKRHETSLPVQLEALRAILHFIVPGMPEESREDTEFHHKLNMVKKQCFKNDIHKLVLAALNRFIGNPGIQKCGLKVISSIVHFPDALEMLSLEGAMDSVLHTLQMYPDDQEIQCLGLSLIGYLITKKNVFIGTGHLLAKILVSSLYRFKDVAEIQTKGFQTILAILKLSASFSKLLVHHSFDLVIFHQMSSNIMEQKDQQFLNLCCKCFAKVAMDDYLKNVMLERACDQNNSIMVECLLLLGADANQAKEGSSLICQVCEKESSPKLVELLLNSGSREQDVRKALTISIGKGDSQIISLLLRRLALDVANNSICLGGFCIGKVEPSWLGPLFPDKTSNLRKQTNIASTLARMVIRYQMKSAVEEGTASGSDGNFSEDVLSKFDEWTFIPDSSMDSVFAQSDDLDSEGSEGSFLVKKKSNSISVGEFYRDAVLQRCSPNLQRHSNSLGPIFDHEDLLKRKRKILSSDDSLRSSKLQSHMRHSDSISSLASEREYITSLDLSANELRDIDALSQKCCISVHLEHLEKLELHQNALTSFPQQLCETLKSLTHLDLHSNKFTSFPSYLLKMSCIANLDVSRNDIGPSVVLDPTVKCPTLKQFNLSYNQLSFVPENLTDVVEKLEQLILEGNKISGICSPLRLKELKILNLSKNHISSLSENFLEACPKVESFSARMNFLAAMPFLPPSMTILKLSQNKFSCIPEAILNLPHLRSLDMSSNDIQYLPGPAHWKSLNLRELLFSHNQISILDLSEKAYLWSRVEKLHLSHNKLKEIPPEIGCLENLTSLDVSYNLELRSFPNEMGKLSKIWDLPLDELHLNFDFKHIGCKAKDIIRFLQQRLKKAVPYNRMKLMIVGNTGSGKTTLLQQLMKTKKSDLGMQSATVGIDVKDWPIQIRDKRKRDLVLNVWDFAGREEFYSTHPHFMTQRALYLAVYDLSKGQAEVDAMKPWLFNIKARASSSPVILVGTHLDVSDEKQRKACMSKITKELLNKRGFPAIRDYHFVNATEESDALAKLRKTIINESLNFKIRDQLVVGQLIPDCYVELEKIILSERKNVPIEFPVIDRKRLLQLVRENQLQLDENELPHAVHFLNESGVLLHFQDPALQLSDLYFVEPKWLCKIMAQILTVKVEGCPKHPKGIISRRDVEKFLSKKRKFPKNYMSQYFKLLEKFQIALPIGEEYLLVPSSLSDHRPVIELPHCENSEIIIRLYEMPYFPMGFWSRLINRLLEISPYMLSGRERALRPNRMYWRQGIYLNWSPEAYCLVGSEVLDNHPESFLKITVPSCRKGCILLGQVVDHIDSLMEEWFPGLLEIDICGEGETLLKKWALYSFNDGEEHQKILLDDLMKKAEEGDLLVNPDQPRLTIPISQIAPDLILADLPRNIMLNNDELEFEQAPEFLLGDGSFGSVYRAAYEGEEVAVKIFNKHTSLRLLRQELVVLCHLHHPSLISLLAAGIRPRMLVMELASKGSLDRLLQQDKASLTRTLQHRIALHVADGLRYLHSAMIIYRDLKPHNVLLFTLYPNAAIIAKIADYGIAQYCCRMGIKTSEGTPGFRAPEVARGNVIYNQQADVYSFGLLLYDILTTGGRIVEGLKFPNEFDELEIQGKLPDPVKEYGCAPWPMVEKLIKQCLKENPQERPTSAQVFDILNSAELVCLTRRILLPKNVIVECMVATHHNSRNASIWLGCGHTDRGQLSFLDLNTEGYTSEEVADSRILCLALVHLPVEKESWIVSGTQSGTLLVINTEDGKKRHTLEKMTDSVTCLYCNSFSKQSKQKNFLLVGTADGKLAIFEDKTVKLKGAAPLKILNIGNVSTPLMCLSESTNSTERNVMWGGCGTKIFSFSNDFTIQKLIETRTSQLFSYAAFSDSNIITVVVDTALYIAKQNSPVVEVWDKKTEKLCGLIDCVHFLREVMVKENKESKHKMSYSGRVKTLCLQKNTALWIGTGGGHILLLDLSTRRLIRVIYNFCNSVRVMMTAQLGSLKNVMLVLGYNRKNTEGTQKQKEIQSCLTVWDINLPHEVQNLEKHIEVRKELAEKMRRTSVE
VALUE_KIND: IC50

{"MOLECULE": "N#Cc1ccc2c(c1F)CC[C@@H]2Oc1ccc2[nH]nc(-c3cnn(C(F)F)c3)c2c1 (single isomer, unassigned) [Example 51, enantiomer 1]", "TESTED_TARGET": "LRRK2 WT (Homo sapiens, UniProt Q5S007)", "IC50": "< 100 nM"}

Provide the reported IC50 of each entry below, same order.
1. N#Cc1ccc2c(n1)CCC[C@@H]2Oc1ccc2[nH]nc(I)c2c1 (single isomer, unassigned) [Example 135, enantiomer 2]
2. N#Cc1ccc2c(c1F)CC(F)(F)[C@@H]2Nc1ccc2[nH]nc(-c3cnco3)c2c1 (single isomer, unassigned) [Example 151, enantiomer 2]
3. N#Cc1cnc2c(c1)CCC[C@@H]2Oc1ccc2[nH]nc(-c3cnoc3)c2c1 (single isomer, unassigned) [Example 2, enantiomer 2]
4. N#Cc1ccc2c(c1)CC[C@@H]2Nc1ccc2[nH]nc(-c3cnco3)c2c1 (single isomer, unassigned) [Example 9, enantiomer 1]
5. Cc1n[nH]c2ccc(N[C@H]3CCc4c(C#N)cccc43)cc12 (single isomer, unassigned) [Example 129, enantiomer 1]

["100 to 1000 nM", "< 100 nM", "< 100 nM", "< 100 nM", "1000 to 10000 nM"]
